In this section we review reported Growth Rate values for a set of compounds.
Test system: Fibroblast
Test: Incucyte cell viability with human fibroblast; also: filed as whole numbers so only -1 and 0 and 1 occur
Format: toxicity, cell-based
Settings: 24 h, 10 µM, compound concentration 10 uM, replicate number 2, timepoint 24 hours
// return just the number, without any unit appended

Below, 3 compounds whose answers are already recorded.
O=C(O)c1ccc2c(c1)nc(Nc1cccc(Cl)c1)c1ccncc12 :: 1
CCC(=O)N[C@@H]1CC[C@H](C(=O)N(C)c2ccc(-c3nc4ccccc4o3)cc2)C1 :: 0
O=C(Nc1cccnc1)c1cc(-c2ccnc(F)c2)ccc1OCc1ccccc1 :: 1

Could you now consider this next compound?
[Q] Recorded Growth Rate of CCCOc1ccc([C@@H]2[C@@H](C(=O)O)[C@H](c3ccc4c(c3)OCO4)CN2CC(=O)Nc2c(CC)cccc2CC)cc1 , please.
[A] 0

* * *

Test system: HEK-293T
Test: Multiplex assay against HEK293T;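 also: share of the cells with healthy nuclei that show this phenotype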
Assay type: toxicity, cell-based
Settings: human, 24 h, 1 µM, compound concentration 1 uM, replicate 2
In this section we review reported Population Tubulin-Different-Phenotype (%) values for a set of molecules.
Write the number in % without appending the unit.

Below, 2 molecules whose answers are already recorded.
CCOc1cc(N2CCC(O)CC2)ccc1Nc1ncc2c(n1)N(C1CCCC1)CCC(=O)N2C :: 1
CN(C)C/C=C/C(=O)Nc1cc2c(Nc3ccc(F)c(Cl)c3)ncnc2cc1O[C@H]1CCOC1.O=C(O)/C=C\C(=O)O.O=C(O)/C=C\C(=O)O [AFATINIB DIMALEATE] :: 9

Could you now consider this next molecule?
[Q] Recorded Population Tubulin-Different-Phenotype (%) of CCC(=O)O[C@]1(C(=O)SCF)[C@H](C)C[C@H]2[C@@H]3C[C@H](F)C4=CC(=O)C=C[C@]4(C)[C@@]3(F)[C@@H](O)C[C@@]21C [FLUTICASONE PROPIONATE] , please.
[A] 22

* * *

Tested on: Fibroblast
Assay: Multiplex assay against human fibroblast
Format: toxicity, cell-based
Conditions: 24 h, 1 µM, compound concentration 1 uM, replicate 2
Classification field. Basis: Population Healthy Nuclei (%). Definitions: low = under 40%, medium = from 40% up to 80%, high = 80% and over

Here's what some known entries look like.
CCC(=O)O[C@]1(C(=O)SCF)[C@H](C)C[C@H]2[C@@H]3C[C@H](F)C4=CC(=O)C=C[C@]4(C)[C@@]3(F)[C@@H](O)C[C@@]21C [FLUTICASONE PROPIONATE] :: high
CC(=O)c1cc(-c2cc(C(=O)NC3CC3)ccc2C)c2ncccn12 :: high
Cc1cn(-c2cc(NC(=O)c3ccc4c(c3)CN(c3cncnc3)C[C@@H]4C)cc(C(F)(F)F)c2)cn1 :: low
O=C(O)c1ccc2cc(-c3ccc(O)c(C45CC6CC(CC(C6)C4)C5)c3)ccc2c1 :: high
CCOc1cc2ncc(C#N)c(Nc3ccc(OCc4cccc(F)c4)c(Cl)c3)c2cc1NC(=O)/C=C/CN(C)C :: low
COc1ccc(NS(=O)(=O)c2sc3ccc(Cl)cc3c2C)cc1N1CCNCC1.Cl :: medium

[Q] Into which bin does this molecule go? COc1cc2c(Nc3ccc(NC(=O)c4ccccc4)cc3)ncnc2cc1OCCCN1CCOCC1
[A] medium

[Q] Into which bin does this molecule go? COc1cc(N2CCC(N(C)C)CC2)ccc1Nc1ncc(Cl)c(Nc2ccccc2P(C)(C)=O)n1
[A] low

[Q] Into which bin does this molecule go? N#Cc1cnc(Nc2cc(NC[C@H]3CNCCO3)c(C(F)(F)F)cn2)cn1
[A] low

Entry source: ChEMBL document CHEMBL4689842
